Would you kindly list relative viability for each of these molecules?
tested on: G401; test: relative viability vs DMSO control (72 h) (fraction); higher = more viable cells; conditions: 0.01372 µM
Give bare numbers.

| Molecule | Target under test | relative viability |
| --- | --- | --- |
| Cc1nc(Nc2ncc(C(=O)Nc3c(C)cccc3Cl)s2)cc(N2CCN(CCO)CC2)n1 [Dasatinib] | G401 | 0.959 |
| CCN(c1cc(-c2ccc(CN3CCOCC3)cc2)cc(C(=O)NCc2c(C)cc(C)[nH]c2=O)c1C)C1CCOCC1 [Tazemetostat] | G401 | 1.05 |
| Cc1cn(-c2cc(NC(=O)c3ccc(C)c(Nc4nccc(-c5cccnc5)n4)c3)cc(C(F)(F)F)c2)cn1 [Nilotinib] | G401 | 0.979 |
| C=CC(=O)Nc1cccc(Nc2nc(Nc3ccc(N4CCN(C(C)=O)CC4)cc3OC)ncc2C(F)(F)F)c1 [Rociletinib] | G401 | 1.04 |
| C[C@@H]1COC(Nc2ccc3ncnc(Nc4ccc(OCc5nccs5)c(Cl)c4)c3c2)=N1 [Varlitinib] | G401 | 0.981 |

Count: 3. Required value per item: relative viability.
1. Cc1cccc(-c2[nH]c(CNc3ccccc3F)nc2-c2ccc3ncnn3c2)n1 [Vactosertib]
2. CCCCCCCCCCCCCCCCCCOP(=O)([O-])OC1CC[N+](C)(C)CC1 [Perifosine]
3. CCN(CCCOc1ccc2c(Nc3cc(CC(=O)Nc4cccc(F)c4)[nH]n3)ncnc2c1)CCOP(=O)(O)O [Barasertib]

Given back:
0.97
1.06
0.897

---

Would you kindly list relative viability for each of these molecules?
test system: VA-ES-BJ; experiment: relative viability vs DMSO control (72 h) (fraction); higher = more viable cells; conditions: 1.111 µM
Answers are plain numbers.

For orientation, consider the following solved cases.
| Molecule | Target under test | Quantitative readout |
| --- | --- | --- |
| CC[C@@H]1C(=O)N(C)c2cnc(Nc3ccc(C(=O)N[C@H]4CC[C@H](N5CCN(CC6CC6)CC5)CC4)cc3OC)nc2N1C(C)C [Volasertib] | VA-ES-BJ | 0.0943 |
| Cc1cccc(-c2[nH]c(CNc3ccccc3F)nc2-c2ccc3ncnn3c2)n1 [Vactosertib] | VA-ES-BJ | 1.11 |
| C1=N/C2=N/c3ccc(OCCN4CCCC4)c(c3)COC/C=C/COCc3cccc(c3)C(=C1)N2 [Pacritinib] | VA-ES-BJ | 0.149 |
| Cc1ccc(NC(=O)c2ccc(CN3CCN(C)CC3)cc2)cc1Nc1nccc(-c2cccnc2)n1 [Imatinib] | VA-ES-BJ | 1.02 |

Count: 7. Required value per item: relative viability.
1. Cc1cn(-c2cc(NC(=O)c3ccc(C)c(Nc4nccc(-c5cnccn5)n4)c3)cc(C(F)(F)F)c2)cn1 [Radotinib]
2. C[C@H]1Oc2cc(cnc2N)-c2c(nn(C)c2C#N)CN(C)C(=O)c2ccc(F)cc21 [Lorlatinib]
3. CN1CCN(CCOc2cc(OC3CCOCC3)c3c(Nc4c(Cl)ccc5c4OCO5)ncnc3c2)CC1 [Saracatinib]
4. C[C@@H]1COC(Nc2ccc3ncnc(Nc4ccc(OCc5nccs5)c(Cl)c4)c3c2)=N1 [Varlitinib]
5. Cc1c(F)cc(C(=O)NC2CC2)cc1-c1ccc(C(=O)NCC(C)(C)C)cn1 [Losmapimod]
6. NC(=O)c1cnc2[nH]ccc2c1N[C@@H]1[C@@H]2CC3C[C@H]1C[C@@](O)(C3)C2 [Peficitinib]
7. Cc1cn(-c2cc(NC(=O)c3ccc(C)c(Nc4nccc(-c5cccnc5)n4)c3)cc(C(F)(F)F)c2)cn1 [Nilotinib]

Given back:
1.18
0.966
0.941
1.05
1.03
1.08
1.1
